target: HLA-B*2709 (Homo sapiens, UniProt P01889, D138H/D201E/E176V/E204Q/G107R/H137Y/K202T/N104T/N87E/Q56L/Q94K/R106L/R155S/R180L/S101D/S121N/S48T/Y140H/Y33H/Y91C); construct: expressed in transfected cells; host or cells: RMA-S (TAP-deficient murine cell line); test: HLA/peptide complex stability assay, RMA-S cells transfected with HLA-B*2709; assay type: cell-based; conditions: EC50, B*2709; SD
pEC50: −log10 of the molar value. Ends that are not written are not given here.
I would appreciate it if you labelled entries label 1 when pEC50 is 5 or higher, otherwise label 0.

Check the entry KRYKGLLPKDI [NP 195-205] : does pEC50 equal or exceed 5?
label 1

Check the entry SRSALLAQM [M 76-84] : does pEC50 equal or exceed 5?
label 1

Check the entry HRFIYLINH [NS2 37-45] : does pEC50 equal or exceed 5?
label 0

Check the entry RRAAAAAAAI [RRA7I] : does pEC50 equal or exceed 5?
label 1

Check the entry KRLPADVLKK [M2 150-159] : does pEC50 equal or exceed 5?
label 0

Check the entry RRANNVLKNEM [NP 184-194] : does pEC50 equal or exceed 5?
label 1

Check the entry VRNKDLNTL [M 169-177] : does pEC50 equal or exceed 5?
label 0

Check the entry HRQDINGKEM [NP 100-109] : does pEC50 equal or exceed 5?
label 0

Check the entry GRNEVFSNK [L 2089-2097] : does pEC50 equal or exceed 5?
label 0

Check the entry LRNEESEKMAK [P 198-208] : does pEC50 equal or exceed 5?
label 0

----------
biological target: HLA-B*2705 (Homo sapiens, UniProt P01889, D138H/D201E/E176V/E204Q/G107R/H137Y/K202T/N104T/N87E/Q56L/Q94K/R106L/R155S/R180L/S101D/S121N/S48T/Y140D/Y33H/Y91C); construct: expressed in transfected cells; host or cells: RMA-S (TAP-deficient murine cell line); test: HLA/peptide complex stability assay, RMA-S cells transfected with HLA-B*2705; format: cell-based; details: Table 2; peptide concentration at 50% of maximum fluorescence, range 0.01–200 µM; transfected RMA-S cells, flow cytometry; mean ± S.D. of three to five independent experiments; - = no statistical difference in fluorescence index to negative control; SD; read-out: EC50, B*2705
Ends that are not written are not given here.
Task for the reader: assign each of the following sequences its reported pEC50.
API: returns pEC50 as number; meaning -log10 of concentration in mol/L.

In plain terms, KRAVGIGAL [HIV gp160 500-508, reference compound] has a documented pEC50 of 4.92

In plain terms, RRYPDAVYL [MV F 438-466, reference compound] has a documented pEC50 of 5.52

----------
molecular target: HLA-B*2705 (Homo sapiens, UniProt P01889, D138H/D201E/E176V/E204Q/G107R/H137Y/K202T/N104T/N87E/Q56L/Q94K/R106L/R155S/R180L/S101D/S121N/S48T/Y140D/Y33H/Y91C); construct: expressed in transfected cells; host or cells: RMA-S (TAP-deficient murine cell line); assay: HLA/peptide complex stability assay, RMA-S cells transfected with HLA-B*2705; assay type: cell-based
Ends that are not written are not given here.
Property Label: relative MHC class I affinity according to the EC50 value, in words (high, medium, low)

Use the examples below as a reference point.
{"columns": ["Sequence Record", "Observed Result"],
 "data": [
  ["RRANNVLKNEM [NP 184-194]", "high"],
  ["GRNEVFSNK [L 2089-2097]", "medium"],
  ["HRFIYLINH [NS2 37-45]", "high"],
  ["SRSALLAQM [M 76-84]", "high"],
  ["LRNEESEKMAK [P 198-208]", "low affinity"]
]}

In plain terms, KRYKGLLPKDI [NP 195-205] has a documented relative MHC class I affinity according to the EC50 value, in words (high, medium, low) of high

In plain terms, KRLPADVLKK [M2 150-159] has a documented relative MHC class I affinity according to the EC50 value, in words (high, medium, low) of high

In plain terms, VRNKDLNTL [M 169-177] has a documented relative MHC class I affinity according to the EC50 value, in words (high, medium, low) of low affinity

In plain terms, HRQDINGKEM [NP 100-109] has a documented relative MHC class I affinity according to the EC50 value, in words (high, medium, low) of medium
